Value source: patent US20200079833A1

// values below are reported Primary assay EC50 (cAMP), n2
test target: GLP-1 receptor (human, UniProt P43220 24-463)
protocol: cell-based or functional assay
Starred links: 1 amine or outer side, 2 acyl side, 3 side chain; linkers in the order of their positions; H or OH if unused. Non-standard residues stand in square brackets, D forms with d. Groups on a side chain read outwards from the residue. Primed or numbered codes have the meaning given here. No end group written: not given here. *: point of attachment. γGlu = O=C(O)[C@H](CCC(=O)[*:2])N[*:1]; Stearoyl = CCCCCCCCCCCCCCCCCC(=O)*; αMeF = C[C@](N)(Cc1ccccc1)C(=O)O; αMeK = C[C@](N)(CCCCN)C(=O)O; αMeS = C[C@](N)(CO)C(=O)O; PEG2′ = not defined here; Aib = CC(C)(N)C(=O)O
Report the value in nM with no unit label.

Request: GET /values?readout=Primary assay EC50 (cAMP), n2&item= H[Aib]EGS[αMeF]TSDVSS[αMeF]LEGEAAKE[αMeF]IA[αMeF]VVKGGK([PEG2′-PEG2′-γGlu-Stearoyl])-NH2 [SEQ ID NO 38]
Result: 0.082

Request: GET /values?readout=Primary assay EC50 (cAMP), n2&item= HXEGTFTXDVSSYLEGQAAKEFIAWLVKGR (Aib 2; Aib 8; C-terminal amide) [SEQ ID NO 20]
Result: 12

Request: GET /values?readout=Primary assay EC50 (cAMP), n2&item= H[Aib]EGS[αMeF]TSDV[αMeS]S[αMeF]LEGEAAK([PEG2′-PEG2′-γGlu-Stearoyl])EFIA[αMeF]VV[αMeK]GG-NH2 [SEQ ID NO 48]
Result: 0.0082

Request: GET /values?readout=Primary assay EC50 (cAMP), n2&item= H[Aib]EGS[αMeF]TSDV[αMeS]S[αMeF]LEGEAAK([PEG2′-PEG2′-γGlu-Stearoyl])E[αMeF]IA[αMeF]VVKGG-NH2 [SEQ ID NO 50]
Result: 0.26

Request: GET /values?readout=Primary assay EC50 (cAMP), n2&item= H[Aib]EGS[αMeF]TSDV[αMeS]S[αMeF]LEGEAA[Aib]EFIK([PEG2′-PEG2′-γGlu-Stearoyl])WVVEGG-NH2 [SEQ ID NO 67]
Result: 0.048
